Target: T1, Cysteine-rich intestinal protein 1 (CRIP1), purified protein coated on plates for the peptide binding assays (human, UniProt P50238 1-77)
T1 construct: Cysteine-rich intestinal protein 1 (CRIP1), human; coding region of the cDNA, 77 amino acids; also called CRIP1 protein; source: bacteria (pHAT10-CRIP1, IPTG induced), purified (TALON CellThru resin)
T1 sequence (looked up): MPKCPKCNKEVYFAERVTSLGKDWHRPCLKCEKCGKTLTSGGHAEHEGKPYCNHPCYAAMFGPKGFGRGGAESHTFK
Assay: competitive binding on protein-coated plates (fluorescence read-out); CRIP1 coated on 96-well plates (100 µg/ml in PBS, overnight 4°C); 10 µM FITC-A1M held constant, unlabeled A1 or A1M 0 to 300 µM, 1 h at 37°C; one binding site model
Details: both partners purified
Bridges are numbered along the chain shown (N, C = ends). Where no end group is shown, it is not given here.
Measured property: IC50 (µM)
Numbers only, in µM.

Below is a list of binders. For each, state its recorded IC50.
1. CLKDNHRSCGGGSK (disulfide 1-9 (inferred), also called original A1 peptide; source: synthetic peptide) [unlabeled A1 peptide]
2. CLDGGGKGCGGGSK (disulfide 1-9 (inferred), source: synthetic peptide) [unlabeled A1M peptide]

stdout:
8.8
0.32
